Attribution: PubChem BioAssay (NCI)

Reported growth values for a set of compounds
- Tested on: COLO 205 colon
- ASSAY_COMMENT: NCI-60 one-dose screen, 48 h (100 = growth as untreated, 0 = no growth, -100 = all killed)
- MEASUREMENT_SETUP: 10 µM unless noted
- Protocol: Cells are grown in 96 well plates and exposed to the test compound for 48 hours. Compounds are tested at a single concentration, which is 10^-5 M for most compounds. The reported endpoint is percent growth (GI% or GIPRCNT), where numbers from 0 - 100% represent growth inhibition, and numbers from -100% - 0 represent cell death. For example, a value of 40 represents 60% growth inhibition. A value of 0 means no net growth occurred over the course of the experiment. […]
Compounds without any hit were thinned out: in the full panel of roughly 83,000, 20% have a hit. Calls of active or inactive are those of the source. How the source made its calls: active means growth percent below 10; inactive means the rest.

Identify measured growth associated with O=C(Nc1ccc(Oc2ccc(Nc3nc4ccccc4s3)cc2)cc1)Nc1ccc(Cl)c(C(F)(F)F)c1
-84% (active)

State its growth: CC(COC(=O)c1ccccc1)N1CC2CCC(C1)O2 (stereo not drawn)
104% (inactive)

Find the measured growth of c1ccc(C2=Nc3ccccc3SC2)cc1 and report it.
114% (inactive)

Report growth, nothing else, for this compound: Cc1ccc(-c2nc3ccccc3c(=O)n2/N=C/c2cccc3ccccc23)cc1
73.8% (inactive)

Give the value of growth reported for the following: Clc1cc(Br)ccc1-c1ccc(CNCC2CCNCC2)o1
27.9% (inactive)

Quickly give me recorded growth for CCCCC(CCc1ccccn1)C(=O)c1ccccc1 (stereo not drawn)
112% (inactive)

Query growth for CC1CCN(Cc2ccc(NC(=O)c3cc4ccc5cccnc5c4[nH]3)cc2)CC1
-16.3% (active)

State, in one line, measured growth of COc1ccc(C2C=C(c3ccc(Cl)cc3)N=C3SC=CN32)cc1 (stereo not drawn)
109% (inactive)

Please report the measured growth for COS(=O)(=O)CCN(CCOS(C)(=O)=O)S(C)(=O)=O
117% (inactive)

Retrieve growth measured for COc1cc(/C=C/C(=O)c2c(C)nc3ccccc3c2C)ccc1OCCCOc1cc2c(cc1OC)C(=O)N1CCC[C@H]1C=N2 and print it.
-85.9% (active)

Write down growth measured for item Oc1[nH]c2ccccc2c1/C=c1/ccc2c(c1)N=C(c1ccc(C(F)(F)F)cc1)N=2
78.8% (inactive)

Give the value of growth reported for the following: CCCCCCCCCCCCCCCCCC1=NC(C)(C)CN1C(C)(C)CO
-99.8% (active)

Identify measured growth corresponding to CCCCCCCCCCCCCCCCOc1ccc(S(=O)(=O)N(C)C)cc1[N+](=O)[O-]
114% (inactive)

Supply measured growth of CCNC(=S)N(Cc1ccccc1)Cc1ccccc1 in your reply.
132% (inactive)

Specify growth for O=C(O)Cn1ccc2ccccc21 and stop.
153% (inactive)

State, in one line, measured growth of COC(=O)c1cc(Cl)cc([N+](=O)[O-])c1O
115% (inactive)

* * *

- System: SK-MEL-28 melanoma
- ASSAY_COMMENT: NCI-60 one-dose screen, 48 h (100 = growth as untreated, 0 = no growth, -100 = all killed)
- MEASUREMENT_SETUP: 10 µM unless noted
This is part of a sample that, as a whole, favours compounds with a hit. Of some 83,000 tested, about 20% had one in any assay.
RESULT_TYPE: growth (%)
Please respond with the number in % and leave the unit unwritten.

Example cases with answers are listed next.
compound=COc1ccc(-c2nnc(SCC(=O)Nc3ccc(C(=O)/C=C/c4ccc(Cl)cc4)cc3)n2-c2ccccc2)cc1 result_type=growth observed_value=101
compound=CCCCn1c(-c2ccc(F)cc2)nc2cc(OC)c(OC)cc2c1=O result_type=growth observed_value=97.5
compound=Nc1cccc(S(=O)(=O)c2cccc(N)c2)c1 result_type=growth observed_value=126
compound=CNC(=O)c1cc(Oc2ccc(NC(=O)c3[nH]c(SC)nc3-c3ccc(F)cc3)cc2)ccn1 result_type=growth observed_value=22.3

Please supply the value of reported growth for the item COc1ccc(/C(=C\c2ccc3c(c2)OCO3)C(=O)Nc2nc3ccc(F)cc3s2)cc1OC
102
